- Test system: c-Abl (mouse)
- ASSAY SUMMARY: phosphorylation enrichment, bacterial display (enrichment ratio); higher = better substrate or ligand; peptides without Tyr show the background;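 note: 11-residue human phosphosite peptides and single-mutation variants displayed on the E. coli surface, counted by deep sequencing, each peptide's frequency after selection divided by its frequency in the unselected input library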;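 note: frequency after pTyr selection over input frequency; kinase dosed for 20-30% of maximal phosphorylation in three min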
MEASURED ATTRIBUTE: phosphorylation enrichment
Number only, no unit.

The sequence listed as WQQQSYLDSGI [CTNNB1_Y30] shows phosphorylation enrichment equal to 0.568

The sequence listed as SLDLSYYPTSS [EMD_Y181] shows phosphorylation enrichment equal to 0.803

The sequence listed as WNDLDYMDSRR [GAA_Y407] shows phosphorylation enrichment equal to 0.864

The sequence listed as LTDLRYKVSGL shows phosphorylation enrichment equal to 0.565

The sequence listed as DFDNLYYWDQD [ERBB2_Y1221_A1216D] shows phosphorylation enrichment equal to 0.973

The sequence listed as EEQKKYFNAMK [SCN5A_Y1494_YF] shows phosphorylation enrichment equal to 0.616

The sequence listed as VPFAQYLAMNK [HARS1_Y138_R137Q] shows phosphorylation enrichment equal to 0.504

The sequence listed as VSNFNYFYHRE [KCNA1_Y413] shows phosphorylation enrichment equal to 0.874

The sequence listed as GTATTYLCGVK [ALPL_Y117_A116T] shows phosphorylation enrichment equal to 0.811

The sequence listed as DLDATYRPMYS [JUP_Y701_M697L] shows phosphorylation enrichment equal to 0.486

The sequence listed as FRVAGYETQGG [TIA1_Y383_YF] shows phosphorylation enrichment equal to 0.64

The sequence listed as MSLRSYGSWEG [APC_Y96_R99W] shows phosphorylation enrichment equal to 0.273

The sequence listed as DFDNLYFWDQD [ERBB2_Y1221_A1216D_YF] shows phosphorylation enrichment equal to 0.801

The sequence listed as HVEAVYIDIAD [PITPNA_Y140] shows phosphorylation enrichment equal to 0.831

The sequence listed as GVKLTYGDAQN [SLC28A1_Y404] shows phosphorylation enrichment equal to 0.813

The sequence listed as HVKHNYECLVY [XRCC5_Y416_I412V] shows phosphorylation enrichment equal to 1.01

The sequence listed as CFTGKYTLPPG [HSPB1_Y142_R140G] shows phosphorylation enrichment equal to 0.833

The sequence listed as VIIVLYFSLWK [SLC6A2_Y249_V245I] shows phosphorylation enrichment equal to 0.693

The sequence listed as TFINKYQGKLF [HGD_Y249_V245F] shows phosphorylation enrichment equal to 0.52

The sequence listed as AESPEYVHMYT [FAM111A_Y511] shows phosphorylation enrichment equal to 0.825

The sequence listed as FSCLPYGRLAF [SLC52A2_Y305_YF] shows phosphorylation enrichment equal to 0.882

The sequence listed as MSRNLYSGDYY [DDR2_Y736] shows phosphorylation enrichment equal to 0.821

The sequence listed as YQKDVYNIPPS [NEDD9_Y177_D178N] shows phosphorylation enrichment equal to 0.584

The sequence listed as MNKNAYHNVTA [ST3GAL6_Y306] shows phosphorylation enrichment equal to 0.465

The sequence listed as TVLEPYTDPYY [ZC3H18_Y367_A368T] shows phosphorylation enrichment equal to 0.568

The sequence listed as IKGIRYLHHQG [GUCY2D_Y656_R660Q] shows phosphorylation enrichment equal to 0.403

The sequence listed as RRIHSYRRHLW [VHL_Y112_G114R] shows phosphorylation enrichment equal to 0.699

The sequence listed as LFEDHYLLGTS [ASS1_Y87_R86H_YF] shows phosphorylation enrichment equal to 0.662

The sequence listed as ETWHNYHKFDS [MATR3_Y243_S240W] shows phosphorylation enrichment equal to 0.48

The sequence listed as VNKIYYPDFIV [LIG3_Y768] shows phosphorylation enrichment equal to 0.596

The sequence listed as SVMAEYGLFAA [VSX2_Y219_G223A_YF] shows phosphorylation enrichment equal to 0.675

The sequence listed as TTSQLYDAVPI [PDPK1_Y9] shows phosphorylation enrichment equal to 1.31

The sequence listed as HNLPIYEGYAL [ACTA1_Y168_V165L] shows phosphorylation enrichment equal to 2.79

The sequence listed as ALKKPYGVLFK [RPF2_Y59_YF] shows phosphorylation enrichment equal to 0.712

The sequence listed as LVRPPYSFLAL [FOXI1_Y126_S129L_YF] shows phosphorylation enrichment equal to 0.526

The sequence listed as QQLVAYYSKHT [SRC_Y232_A237T] shows phosphorylation enrichment equal to 0.906

The sequence listed as PADCRYFAFPQ [GAMT_Y222_YF] shows phosphorylation enrichment equal to 0.752

The sequence listed as ISGLKYPVSQQ [BTK_Y375_R372G] shows phosphorylation enrichment equal to 0.392

The sequence listed as RETLTYAQAQG [BRD1_Y33_R38G] shows phosphorylation enrichment equal to 0.418

The sequence listed as DNEALYDICFR [TUBB2B_Y208] shows phosphorylation enrichment equal to 3.58

The sequence listed as ELPEKYSQNIY [PKP2_Y626] shows phosphorylation enrichment equal to 0.658

The sequence listed as HRDSSYYWEIE [RAF1_Y340_Q335H] shows phosphorylation enrichment equal to 0.818

The sequence listed as ANFAKYGNPNE [BCHE_Y505] shows phosphorylation enrichment equal to 0.357

The sequence listed as RHLLRYLSWTV [CLCNKB_Y93_S88R] shows phosphorylation enrichment equal to 0.969

The sequence listed as ARDVIYIIIPA [FRKtide_2014] shows phosphorylation enrichment equal to 1.17

The sequence listed as VGSIEYLKREW [KCNMA1_Y885] shows phosphorylation enrichment equal to 0.488

The sequence listed as SVTCTYSPAFN [TP53_Y126_L130F] shows phosphorylation enrichment equal to 1

The sequence listed as KELAKYFKLHH [AK7_Y390_N389K_YF] shows phosphorylation enrichment equal to 0.439

The sequence listed as ETDTRYFDEEF [AKT1_Y437] shows phosphorylation enrichment equal to 0.875

The sequence listed as LNAGAYSKVVQ [PPT1_Y172] shows phosphorylation enrichment equal to 0.994

The sequence listed as VERIGYDFIPT [CBS_Y308_G305R] shows phosphorylation enrichment equal to 0.593

The sequence listed as AVRVFYRKCPR [EPHB2_Y194] shows phosphorylation enrichment equal to 0.78

The sequence listed as RGKDNYETSQL [SPP1_Y225_S224N] shows phosphorylation enrichment equal to 0.62

The sequence listed as ETKAFYPEEIS [HSPA1A_Y115] shows phosphorylation enrichment equal to 0.584

The sequence listed as IEPCIYIPEDD [XPNPEP3_Y455_G453C] shows phosphorylation enrichment equal to 0.862

The sequence listed as AHAGEYGAVAL [HBA1_Y25_E28V] shows phosphorylation enrichment equal to 0.517

The sequence listed as TRYDEYLEVTK [MAP1A_Y2217_H2214Y] shows phosphorylation enrichment equal to 0.909

The sequence listed as KTVQDYLKKFY [MMP8_Y36_E38K] shows phosphorylation enrichment equal to 1.42

----------
- ASSAY SYSTEM: FGFR3 (UniProt P22607)
- Sequence (P22607 whole entry, looked up): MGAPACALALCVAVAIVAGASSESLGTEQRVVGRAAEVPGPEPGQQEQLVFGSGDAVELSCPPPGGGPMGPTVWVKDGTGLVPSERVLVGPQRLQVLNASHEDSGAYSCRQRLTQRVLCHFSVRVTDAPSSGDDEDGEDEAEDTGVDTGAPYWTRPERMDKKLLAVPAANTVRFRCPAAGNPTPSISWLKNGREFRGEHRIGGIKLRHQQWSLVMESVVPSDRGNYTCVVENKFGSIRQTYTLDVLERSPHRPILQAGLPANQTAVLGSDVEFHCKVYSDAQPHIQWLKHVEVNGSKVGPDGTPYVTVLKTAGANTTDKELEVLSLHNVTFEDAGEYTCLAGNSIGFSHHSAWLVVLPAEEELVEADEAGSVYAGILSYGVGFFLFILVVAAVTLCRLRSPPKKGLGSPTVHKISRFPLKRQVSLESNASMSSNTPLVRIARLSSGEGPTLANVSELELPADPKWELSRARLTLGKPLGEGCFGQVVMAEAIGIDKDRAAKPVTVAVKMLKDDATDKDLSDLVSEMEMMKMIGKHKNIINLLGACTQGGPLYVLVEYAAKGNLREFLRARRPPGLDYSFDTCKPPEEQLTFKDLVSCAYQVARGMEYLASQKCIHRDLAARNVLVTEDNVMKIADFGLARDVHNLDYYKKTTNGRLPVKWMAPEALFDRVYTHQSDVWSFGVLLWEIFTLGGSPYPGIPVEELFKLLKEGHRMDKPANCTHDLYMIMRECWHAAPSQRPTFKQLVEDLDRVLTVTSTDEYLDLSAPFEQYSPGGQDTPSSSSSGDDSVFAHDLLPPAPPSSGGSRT
- ASSAY SUMMARY: phosphorylation enrichment, bacterial display (enrichment ratio); higher = better substrate or ligand; peptides without Tyr show the background
Please respond with reported phosphorylation enrichment for every item in the list.
Number only, no unit.

Log: FGFR3 (UniProt P22607), sequence DENWFYMRAAS [RPS19_Y54_T55M] , phosphorylation enrichment = 0.933

Log: FGFR3 (UniProt P22607), sequence FIRRDYEACKA [BBS4_Y48_K46R_YF] , phosphorylation enrichment = 0.494

Log: FGFR3 (UniProt P22607), sequence SHPSSYTTHPQ [NIPBL_Y195] , phosphorylation enrichment = 0.404

Log: FGFR3 (UniProt P22607), sequence KQLGEYKFQNA [ALB_Y425_E420K] , phosphorylation enrichment = 0.417

Log: FGFR3 (UniProt P22607), sequence FIGRIYLYLTK [GARS1_Y414] , phosphorylation enrichment = 0.627

Log: FGFR3 (UniProt P22607), sequence YLEKYYKFGSR [NNMT_Y25] , phosphorylation enrichment = 0.553

Log: FGFR3 (UniProt P22607), sequence AAVPAYDKIRV [STXBP2_Y401] , phosphorylation enrichment = 0.541

Log: FGFR3 (UniProt P22607), sequence GLAKEYIDPET [CSNK1G2_Y195] , phosphorylation enrichment = 0.604

Log: FGFR3 (UniProt P22607), sequence NELTYYCCKKD [CD59_Y87] , phosphorylation enrichment = 3.92

Log: FGFR3 (UniProt P22607), sequence DQNVEYKGTVS [FHL1_Y117_W122S] , phosphorylation enrichment = 0.566

Log: FGFR3 (UniProt P22607), sequence NKHTNYTMEHI [ACTN1_Y708] , phosphorylation enrichment = 0.296

Log: FGFR3 (UniProt P22607), sequence PLQNTYNFNVL [SLC4A1_Y553_K551N_YF] , phosphorylation enrichment = 0.616

Log: FGFR3 (UniProt P22607), sequence TEQDPSNNIVR [MMUT_Y364_Y364S] , phosphorylation enrichment = 0.557

Log: FGFR3 (UniProt P22607), sequence DSDTDYGSGFP [RNASEH2A_Y206_L202S_YF] , phosphorylation enrichment = 0.605

Log: FGFR3 (UniProt P22607), sequence VVAHHYSFAPD [TNS3_Y601_Q600H] , phosphorylation enrichment = 0.674

Log: FGFR3 (UniProt P22607), sequence SLDLSYYHTSS [EMD_Y181_P183H] , phosphorylation enrichment = 1.19

Log: FGFR3 (UniProt P22607), sequence LLTALYFISWG [KCNH2_Y780_R784W] , phosphorylation enrichment = 1.23

Log: FGFR3 (UniProt P22607), sequence TFMKKYPKVFL [CNBD1_Y70_Q69K] , phosphorylation enrichment = 0.419

Log: FGFR3 (UniProt P22607), sequence PLQKTYNFNML [SLC4A1_Y553_V557M_YF] , phosphorylation enrichment = 0.809

Log: FGFR3 (UniProt P22607), sequence TTTQAYRVNER [PRKN_Y391_D394N] , phosphorylation enrichment = 0.386

Log: FGFR3 (UniProt P22607), sequence MSRLKYPVSQQ [BTK_Y375_I370M] , phosphorylation enrichment = 0.621

Log: FGFR3 (UniProt P22607), sequence CLAKMYYSAVE [CP_Y539_D544E] , phosphorylation enrichment = 0.885

Log: FGFR3 (UniProt P22607), sequence NTQRPYYKGGG [TYROBP_Y111] , phosphorylation enrichment = 0.421

Log: FGFR3 (UniProt P22607), sequence RLLRGYDQFAY [HLA-C_Y137_S140F] , phosphorylation enrichment = 0.617

Log: FGFR3 (UniProt P22607), sequence NNKKDYYDMYE [SLC26A3_Y526_K521N] , phosphorylation enrichment = 6.01

Log: FGFR3 (UniProt P22607), sequence ITKNPYDPPGR , phosphorylation enrichment = 0.645

Log: FGFR3 (UniProt P22607), sequence EAIMTYVSSFY [ACTN4_Y260_K255E] , phosphorylation enrichment = 0.693

Log: FGFR3 (UniProt P22607), sequence FMFKVYSDPQP [FGFR1_Y280_C277Y_YF] , phosphorylation enrichment = 1.08

Log: FGFR3 (UniProt P22607), sequence DRLASYQDKVR [KRT12_Y139_L140Q] , phosphorylation enrichment = 0.539

Recorded values, source the supplement of paper PMC10065799.
